test: Toxicity liver stage against HepG2, at 10uM; type: cell-based; set-up: test concentration 10 uM, cell line HepG2-A16-CD81EGFP; details: human, HepG2-A16-CD81EGFP cells; read-out: INHIBITION
ENDPOINT: cytotoxicity at 10 µM
State the value with its unit after it.

Summary for this molecule, O=C(NCCCOCC1CCCO1)c1cccnc1N1CCCC1 (stereo not drawn) : cytotoxicity at 10 µM is 12.4%

Summary for this molecule, CC(=O)N1CCC(N2CCOC[C@H]2c2nc(C(C)(C)C)c[nH]2)CC1 : cytotoxicity at 10 µM is 6.51%

Summary for this molecule, Cc1ccc(C2CCCN(C(=O)c3cnn(C)c3)C2)nc1 (stereo not drawn) : cytotoxicity at 10 µM is -25.8%

Summary for this molecule, CC(O)CCN(C)C(=O)Nc1cc(F)cc(Br)c1 (stereo not drawn) : cytotoxicity at 10 µM is 4.12%

Summary for this molecule, COc1ccc(C(=O)N2CCCC2c2cnn(C)c2)cn1 (stereo not drawn) : cytotoxicity at 10 µM is -3.63%

Summary for this molecule, Cc1cccc(OC2CCN(C(=O)Cn3ccc4ccccc43)CC2)n1 : cytotoxicity at 10 µM is 1.53%

Summary for this molecule, Cc1nn(C)c(C)c1C(=O)N1CCN(C(=O)CC2CCCCC2)CC1 : cytotoxicity at 10 µM is -2.55%

Summary for this molecule, Fc1cnc(N2CCCC3(CCN(Cc4cccs4)C3)C2)nc1 (stereo not drawn) : cytotoxicity at 10 µM is -71.1%

Summary for this molecule, NC(=O)CS(=O)(=O)Cc1cc(Cl)c2c(c1)OCCCO2 : cytotoxicity at 10 µM is -0.463%

Summary for this molecule, CCc1nccn1CC(=O)N1C[C@@H]2CC[C@H]1CN(c1ncccn1)C2 : cytotoxicity at 10 µM is -7.9%

Summary for this molecule, Cc1ccc(N2CCC3(CCN(C(=O)c4ccsc4)CC3)CC2)nn1 : cytotoxicity at 10 µM is 2.19%

Summary for this molecule, NC(=O)c1ccc(CNC(=O)Nc2cn[nH]c2)cc1 : cytotoxicity at 10 µM is -20.4%

Summary for this molecule, CC(C)CCN1CCN(Cc2nc(C3CC3)no2)CC1 : cytotoxicity at 10 µM is -8.77%

Summary for this molecule, Cc1ccccc1CN1CCC2(CC1)CN(S(=O)(=O)c1ccccc1)C2 : cytotoxicity at 10 µM is -2.78%

Summary for this molecule, CCC1CN(c2cnn(-c3ccccc3)c(=O)c2Cl)CCO1 (stereo not drawn) : cytotoxicity at 10 µM is -17.4%

Summary for this molecule, Cc1ccc(N2CC(c3nccc(C)n3)C2)nn1 : cytotoxicity at 10 µM is 8.82%

Summary for this molecule, CC(C)NC(=O)CCNC(=O)CCc1cc(Br)cs1 : cytotoxicity at 10 µM is -3.16%

Summary for this molecule, Cc1cc(Cl)ccc1C(=O)N1C[C@H](C2CC2)[C@@H](N)C1 : cytotoxicity at 10 µM is -46.6%

Summary for this molecule, Cc1ccc(N2CC[C@H]3OCC[C@@]3(C(=O)NCC3CC3)C2)nn1 : cytotoxicity at 10 µM is 3.22%

Summary for this molecule, CCN1Cc2cc(F)ccc2N(C(=O)C2CCC2)CCC1=O : cytotoxicity at 10 µM is -41.2%

Summary for this molecule, CC(C)C(=O)N1CCC(c2nc(O)cc(-c3ccncc3)n2)CC1 : cytotoxicity at 10 µM is -5.41%

Summary for this molecule, CN1CCN(C(=O)c2cccc(CN3CCOCC3)c2)CC1 : cytotoxicity at 10 µM is 2.46%

Summary for this molecule, Cc1ccc(-c2ccnc(N3CCC4(CC3)CNC(=O)C4)n2)c(C)n1 : cytotoxicity at 10 µM is -5.3%

Summary for this molecule, CC(=O)N1Cc2ccccc2C[C@H]1C(=O)N(C)Cc1ccccn1 : cytotoxicity at 10 µM is 6.17%

Summary for this molecule, CCc1ccc(CCn2cnc(C#N)n2)cc1 : cytotoxicity at 10 µM is -0.224%

Summary for this molecule, CC1CN(C)CCN1C(=O)c1cnn(-c2cccc(Cl)c2)c1 (stereo not drawn) : cytotoxicity at 10 µM is -8.68%

Summary for this molecule, O=C(NCc1ccccc1OCC1CC1)C1CCOC1 (stereo not drawn) : cytotoxicity at 10 µM is 4.94%

Summary for this molecule, Cc1nc(C)c(CC(=O)N2CCC(Oc3ccccc3)CC2)c(=O)[nH]1 : cytotoxicity at 10 µM is 1.98%

Summary for this molecule, CCn1cc(C(=O)N2CCOCC2)cn1 : cytotoxicity at 10 µM is 0.805%

Summary for this molecule, CC(C)(C)c1nc(CNc2cc3c(cc2Cl)NC(=O)CO3)no1 : cytotoxicity at 10 µM is -0.438%

Summary for this molecule, CCN(Cc1cc(Cl)c(O)c(OC)c1)Cc1nc(COC)no1 : cytotoxicity at 10 µM is 1.29%

Summary for this molecule, COCCCNC(=O)c1c(-n2cnnn2)sc2c1CCC2 : cytotoxicity at 10 µM is 11.4%

Summary for this molecule, Cc1ccc(CN2CCC3(CC2)CC3CN(C)Cc2cccnc2)o1 (stereo not drawn) : cytotoxicity at 10 µM is -3.76%

Summary for this molecule, O=C(Cc1cn2ccsc2n1)N(Cc1ccco1)CC1CCCO1 (stereo not drawn) : cytotoxicity at 10 µM is 7.07%

Summary for this molecule, CN1CC(NC(=O)Nc2cnn(-c3ccccc3Cl)c2)CCC1=O (stereo not drawn) : cytotoxicity at 10 µM is -1.54%

Summary for this molecule, COc1ccc(CCN)cc1-c1ccc(O)cc1 : cytotoxicity at 10 µM is -3.05%

Summary for this molecule, Cc1cnc(C(C)(C)NC(=O)NCc2ccc(C#N)cc2F)s1 : cytotoxicity at 10 µM is 15.1%

Summary for this molecule, CNc1ncc(CN(C)c2nccc(CCC(F)(F)F)n2)cn1 : cytotoxicity at 10 µM is -16.3%

Summary for this molecule, Cc1cnn(CC2CN(Cc3nc(N)c4ccccc4n3)CCO2)c1 (stereo not drawn) : cytotoxicity at 10 µM is 5.9%

Summary for this molecule, CCN(CC)C1(Cc2cc(-c3ccccn3)on2)COC1 : cytotoxicity at 10 µM is 1.41%

Summary for this molecule, Cc1cccc(CNC(=O)CC2CCN(Cc3ccccn3)CC2)n1 : cytotoxicity at 10 µM is 10.1%

Summary for this molecule, CC(C)n1ncc2c1NC(=O)CC21C(=O)Nc2c(Cl)cc(Cl)cc21 (stereo not drawn) : cytotoxicity at 10 µM is 3.38%

Summary for this molecule, COC(=O)[C@@H]1C[C@H](NC(=O)c2cc(=O)[nH]c3ccc(C)cc23)CN1C : cytotoxicity at 10 µM is 6.46%

Summary for this molecule, COCc1cnc2n1CCN(C(=O)c1cc3cc(Cl)ccc3o1)C2C (stereo not drawn) : cytotoxicity at 10 µM is -112%

Summary for this molecule, CCc1ccc(CN2CCc3c(nnn3C)C2COC)cc1 (stereo not drawn) : cytotoxicity at 10 µM is 7.28%

Summary for this molecule, Cc1cccc(CN2C[C@@H]3COC[C@]3(CNC(=O)c3ccsc3)C2)n1 : cytotoxicity at 10 µM is -1.85%

Summary for this molecule, Cc1nc(CN2CC[C@@H](OCC3CC3)[C@@H]2Cc2cccnc2)cs1 : cytotoxicity at 10 µM is -4.38%

Summary for this molecule, CNC(=O)C1CCCCN1C(=O)c1csc(-c2ccc(C)o2)n1 (stereo not drawn) : cytotoxicity at 10 µM is 7.55%

----------
test: Toxicity liver stage against HepG2, at 10uM; assay type: cell-based; design: test concentration 10 uM, cell line HepG2-A16-CD81EGFP; conditions: human, HepG2-A16-CD81EGFP cells; read-out: INHIBITION
ENDPOINT: cytotoxicity at 10 µM (%)
Numbers only here, please. The scale is %.

Summary for this molecule, CCC(C)C(=O)NCc1ccc(-n2cncn2)nc1 (stereo unspecified) : cytotoxicity at 10 µM is 8.85

Summary for this molecule, Cc1occc1C(=O)N1C[C@@H](OCc2cccnc2)[C@H]2OCCC[C@@H]21 : cytotoxicity at 10 µM is 3.16

Summary for this molecule, Cc1nc(COC[C@@H]2CCC[C@@]23CNCCO3)cs1 : cytotoxicity at 10 µM is 3.29

Summary for this molecule, O=C(Cn1cnnn1)N1CCCCC1Cn1cccn1 (stereo unspecified) : cytotoxicity at 10 µM is -9.24

Summary for this molecule, Cc1cc(NC(=O)Nc2ccc3c(ccn3CCN(C)C)c2)n(C)n1 : cytotoxicity at 10 µM is 3.38

Summary for this molecule, O=C(Cn1cnc(-c2ccccc2)cc1=O)Nc1ccncc1 : cytotoxicity at 10 µM is 3.48

Summary for this molecule, O=C(CCC1CCCO1)NCc1ccc(Br)cc1F (stereo unspecified) : cytotoxicity at 10 µM is 1.6

Summary for this molecule, CN(C)Cc1nc(-n2cnc(C(=O)NCC3CC3)c2)n2ccccc12 : cytotoxicity at 10 µM is 1.55

Summary for this molecule, CC(=O)NCC(=O)NC1CCc2nccn2C1 (stereo unspecified) : cytotoxicity at 10 µM is -6.99

Summary for this molecule, Cc1cccc(C)c1OCCNC(=O)CN1CCN(C)CC1C (stereo unspecified) : cytotoxicity at 10 µM is -6.28

Summary for this molecule, CCC1=N[C@@]2(CC[C@@H]3CN(Cc4ccc(Cl)cc4)C[C@@H]32)C(=O)N1C : cytotoxicity at 10 µM is 1.98
